assay_system: Ku70/Ku80 heterodimer, wild type (human, UniProt P12956;P13010 1-609;1-732)
Sequence (P12956 whole entry, chain 1 of 2): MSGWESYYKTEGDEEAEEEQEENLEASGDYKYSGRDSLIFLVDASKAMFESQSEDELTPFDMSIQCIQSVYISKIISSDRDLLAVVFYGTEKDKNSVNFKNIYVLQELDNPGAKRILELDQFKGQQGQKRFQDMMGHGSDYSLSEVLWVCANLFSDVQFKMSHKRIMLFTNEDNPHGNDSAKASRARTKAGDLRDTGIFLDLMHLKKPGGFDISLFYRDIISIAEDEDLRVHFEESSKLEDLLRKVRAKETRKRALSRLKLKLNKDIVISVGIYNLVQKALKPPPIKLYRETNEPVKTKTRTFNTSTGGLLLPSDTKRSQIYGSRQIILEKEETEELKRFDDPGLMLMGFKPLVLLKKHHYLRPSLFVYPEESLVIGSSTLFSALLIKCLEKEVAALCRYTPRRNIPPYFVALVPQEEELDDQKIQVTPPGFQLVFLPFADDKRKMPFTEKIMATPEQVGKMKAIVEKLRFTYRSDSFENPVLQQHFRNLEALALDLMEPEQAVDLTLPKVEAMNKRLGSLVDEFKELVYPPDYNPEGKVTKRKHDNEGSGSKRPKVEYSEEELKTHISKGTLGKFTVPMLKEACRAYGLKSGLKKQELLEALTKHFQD
Sequence (P13010 whole entry, chain 2 of 2): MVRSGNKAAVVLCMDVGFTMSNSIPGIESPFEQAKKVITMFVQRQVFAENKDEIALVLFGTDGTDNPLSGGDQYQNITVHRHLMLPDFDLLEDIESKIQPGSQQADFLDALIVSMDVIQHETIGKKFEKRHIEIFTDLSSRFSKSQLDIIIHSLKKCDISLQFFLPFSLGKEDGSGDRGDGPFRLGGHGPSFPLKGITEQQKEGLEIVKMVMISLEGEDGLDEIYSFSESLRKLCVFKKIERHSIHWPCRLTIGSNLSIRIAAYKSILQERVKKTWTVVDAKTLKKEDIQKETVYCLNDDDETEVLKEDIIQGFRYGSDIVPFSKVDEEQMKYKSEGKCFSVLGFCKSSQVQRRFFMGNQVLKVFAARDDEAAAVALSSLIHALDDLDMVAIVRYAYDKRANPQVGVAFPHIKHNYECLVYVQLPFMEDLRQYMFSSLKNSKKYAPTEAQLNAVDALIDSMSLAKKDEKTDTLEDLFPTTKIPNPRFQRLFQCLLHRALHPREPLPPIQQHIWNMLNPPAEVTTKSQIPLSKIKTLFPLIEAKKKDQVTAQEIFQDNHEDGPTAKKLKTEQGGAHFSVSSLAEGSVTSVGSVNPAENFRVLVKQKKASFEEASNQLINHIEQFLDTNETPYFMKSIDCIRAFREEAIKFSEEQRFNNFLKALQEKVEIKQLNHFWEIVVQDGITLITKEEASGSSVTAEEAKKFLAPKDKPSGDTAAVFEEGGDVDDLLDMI
test_protocol: EMSA; reduced (control), 10 mM Mg2+, titration was 0-150 nM so probably nM; 50 mM Tris-HCl pH 7.8, 10 mM MgCl2, 50 mM NaCl (FP: plus 1 mM DTT, 0.5 ml; EMSA: 20 μl, 500 fmol DNA); oxidation 2 mM diamide 15 min on ice, re-reduction 5 mM DTT 15 min on ice; binding temperature not stated
conditions: protein: recombinant; tags: His6 on Ku70; copies: 1;1; label: 32P; blunt
property: pKd
Scale for pKd: -log10 of concentration given in mol/L; no unit attached.

In: Kindly indicate its recorded pKd. Item: 30-bp duplex 30A/30C (EMSA) (dsDNA) DNA 1: CCCCTATCCTTTCCGCGTCCTTACTTCCCC DNA 2: GGGGAAGTAAGGACGCGGAAAGGATAGGGG
Out: 7.53
